SYSTEM UNDER TEST: CYP2C19 (Homo sapiens, UniProt P33261)
Construct: 0.1 mg/mL protein human liver microsomes (BD Gentest); tissue BD Gentest; host or cells: human liver microsomes
Sequence (P33261 whole entry): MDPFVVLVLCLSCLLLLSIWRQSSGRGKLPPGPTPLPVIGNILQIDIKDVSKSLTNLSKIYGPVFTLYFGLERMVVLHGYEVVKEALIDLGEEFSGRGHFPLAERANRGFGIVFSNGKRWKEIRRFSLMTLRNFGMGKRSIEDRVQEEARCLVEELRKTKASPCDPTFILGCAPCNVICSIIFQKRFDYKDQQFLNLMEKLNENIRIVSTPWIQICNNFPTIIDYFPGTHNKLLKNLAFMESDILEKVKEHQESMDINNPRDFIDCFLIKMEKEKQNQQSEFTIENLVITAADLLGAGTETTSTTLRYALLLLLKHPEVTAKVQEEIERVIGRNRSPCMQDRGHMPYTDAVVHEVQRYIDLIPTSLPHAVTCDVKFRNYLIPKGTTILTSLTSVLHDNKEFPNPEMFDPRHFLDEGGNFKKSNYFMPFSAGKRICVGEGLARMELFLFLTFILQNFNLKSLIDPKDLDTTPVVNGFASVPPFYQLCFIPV
TEST DETAILS: Cocktail assay for CYPs, mephenytoin 4′-hydroxylation (CYP2C19), human liver microsomes
Format: biochemical
CONDITION SUMMARY: 30 μM mephenytoin, 0.1 mg/mL human liver microsomes, 10 min at 37° C.; read-out: CYP IC50 (nM) 2C19

| COMPOUND | RELATION SYMBOL | IC50 (nM) |
| --- | --- | --- |
| O=C(c1ccc(N2CCOCC2)nc1)N1CCCC1c1ccccc1-c1cncn1CCc1ccc(F)cc1 (single isomer, unassigned) [Compound 43b] | > | 10000 |
| CC(=O)Nc1ncc(S(=O)(=O)N2CCCC2c2ccc(-c3cncn3CCc3ccc(F)cc3)cc2)s1 (stereo not shown) | = | 281 |
| COCCN(C)c1ccc(S(=O)(=O)N2CCc3c(cccc3-c3cncn3CCc3ccc(F)cc3)C2)cn1 | = | 238 |
| O=S(=O)(NCCc1ccccc1-c1cncn1CCc1ccc(F)cc1)c1cccnc1 | > | 10000 |
| O=C(c1cccnc1)N1CCCC1c1cccc(-c2cncn2CCc2ccc(F)cc2)c1 (single isomer, unassigned) [Compound 48a] | = | 5430 |
| O=C(c1ccc(N2CCOCC2)nc1)N1CCCC1c1ccccc1-c1cncn1CCc1ccc(F)cc1 (single isomer, unassigned) [Compound 43a] | = | 3270 |
| CS(=O)(=O)N1CCCC1c1ccccc1-c1cncn1CCc1ccc(F)cc1 (single isomer, unassigned) [Compound 23b] | > | 10000 |
| O=C(C1CCOCC1)N1CCCC1c1ccccc1-c1cncn1CCc1ccc(F)cc1 (stereo not shown) | > | 10000 |
| CC(=O)Nc1ncc(S(=O)(=O)NC2(c3ccc(-c4cncn4[C@H](C)c4ccc(F)cc4)cc3)CC2)s1 | > | 10000 |
| O=S(=O)(c1ccc(N2CCN(CCO)CC2)nc1)N1CCCC1c1ccccc1-c1cncn1CCc1ccc(F)cc1 (single isomer, unassigned) [Compound 35a] | > | 10000 |
| CC(=O)Nc1ncc(S(=O)(=O)NCc2ccc(-c3cncn3CCc3ccc(F)cc3)cc2)s1 | = | 300 |
| CC(NS(=O)(=O)c1cnc(N2CCN(C)CC2)s1)c1ccc(-c2cncn2CCc2ccc(F)cc2)cc1 (stereo not shown) | > | 10000 |
| Fc1ccc(CCn2cncc2-c2ccccc2C2CCCN2)cc1 (stereo not shown) | > | 10000 |
| CN1CCN(c2ncc(S(=O)(=O)N3Cc4cccc(-c5cncn5CCc5ccc(F)cc5)c4C3)s2)CC1 | = | 1260 |
| CC(=O)Nc1ncc(S(=O)(=O)N2CCCC2c2ccccc2-c2cncn2C)s1 (stereo not shown) | > | 10000 |
| CN1CCN(c2ncc(S(=O)(=O)NC(c3ccccc3)c3ccccc3-c3cncn3CCc3ccc(F)cc3)s2)CC1 (stereo not shown) | > | 10000 |
| COc1ccc(OC)c(S(=O)(=O)N2CCCC2c2ccccc2-c2cncn2CCc2ccc(F)cc2)c1 (stereo not shown) | = | 3800 |
| O=S(=O)(c1ccc(N2CCOCC2)nc1)N1CCc2c(cccc2-c2cncn2CCc2ccc(F)cc2)C1 | = | 53 |
| C[C@H](c1ccc(F)cc1)n1cncc1-c1ccc2c(c1)CN(S(=O)(=O)c1cnc(N)s1)CC2 | = | 121 |
| CN1CCCC1c1ccccc1-c1cncn1CCc1ccc(F)cc1 (single isomer, unassigned) [Compound 45b] | > | 10000 |
| O=C(c1ccc(N2CCOCC2)nc1)N1CCCC1c1cccc(-c2cncn2CCc2ccc(F)cc2)c1 (stereo not shown) | = | 249 |
| O=C(NCc1ccc(S(=O)(=O)N2CCCC2c2cccc(-c3cncn3CCc3ccc(F)cc3)c2)s1)c1ccccc1 (single isomer, unassigned) [Compound 55a] | = | 219 |
